Target: T1, hPD-1-his (human, UniProt Q15116 25-167)
T1 construct: domain: IgV domain; monomer in solution; biotin-labelled where captured by streptavidin; also called biotin-hPD-1-his
T1 sequence (Q15116 other isoform, or with tags, fused parts or gaps limits assumed): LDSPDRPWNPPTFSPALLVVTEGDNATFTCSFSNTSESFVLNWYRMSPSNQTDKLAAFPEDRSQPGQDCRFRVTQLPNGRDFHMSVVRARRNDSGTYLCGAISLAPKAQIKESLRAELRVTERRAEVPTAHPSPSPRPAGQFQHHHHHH
Assay: ELISA, hPD-1-his on anti-his
valueType: OD450 at 10 nM (OD450)
Respond numerically; units are OD450 and should not be typed.

As a guide, the following entries are already answered.
binder | valueUnits | OD450 at 10 nM
34C1 (antibody, V domains shown) VH: QVQLVQSGAEVKKPGSSVKVSCKASGGTFSSSVISWVRQAPGQGLEWMGGIIPIFGTANYAQKFQGRVTITADESTSTAYMELSSLRSEDTAVYYCAREGLGCSGGSCYSGYYYGMDVWGQGTTVTVSS VL: DIVMTQSPLSLPVTPGEPASISCRSSESLLYSNGNTYLDWYLQKPGQSPQLLIYEVSNRASGVPDRFSGSGSGTDFTLKISRVEAEDVGVYYCMQGTRWPYTFGQGTKVEIK | OD450 | 0.521
33C4 (antibody, V domains shown, also called 780_39) VH: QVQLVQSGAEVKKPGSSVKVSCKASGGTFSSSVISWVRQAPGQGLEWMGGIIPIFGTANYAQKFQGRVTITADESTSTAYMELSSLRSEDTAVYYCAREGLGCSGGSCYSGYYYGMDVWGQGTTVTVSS VL: DIVMTQSPLSLPVTPGEPASISCRSSQSLLHSNGYNYLDWYLQKPGQSPQLLIYEASSLHTGVPDRFSGSGSGTDFTLKISRVEAEDVGVYYCMQGSHWPYTFGQGTKLEIK | OD450 | 0.578
31B1 (antibody, V domains shown, also called 780_38; 33B1 and 31B2 (apparent misprints)) VH: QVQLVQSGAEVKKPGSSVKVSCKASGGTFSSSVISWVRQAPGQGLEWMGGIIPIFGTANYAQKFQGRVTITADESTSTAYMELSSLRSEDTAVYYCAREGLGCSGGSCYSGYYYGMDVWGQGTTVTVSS VL: DIVMTQSPLSLPVTPGEPASISCRSSQSLLHSNGYNYLDWYLQKPGQSPQLLIYEASSLHSGVPDRFSGSGSGTDFTLKISRVEAEDVGVYYCMQGTHWPYTFGQGTKVEIK | OD450 | 0.59

Kindly consider the entry below.
OD450 at 10 nM in this record for 33G8 (antibody, V domains shown) VH: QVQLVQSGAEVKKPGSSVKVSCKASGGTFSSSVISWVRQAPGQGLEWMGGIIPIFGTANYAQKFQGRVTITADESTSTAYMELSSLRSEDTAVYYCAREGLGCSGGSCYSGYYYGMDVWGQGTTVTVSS VL: DIVMTQSPLSLPVTPGEPASISCRSSQSLLHSNGYNYLDWYLQKPGQSPQLLIYQASTLGSGVPDRFSGSGSGTDFTLKISRVEAEDVGVYYCMQGTHWPYTFGQGTKLEIK : 0.487
